The reported measurements were obtained from patent US20190367560A1.

Kindly supply the reported pKd values for the records listed here.
EXPERIMENTAL_TARGET: IgG
ASSAY_NOTES: SPR (BIAcore T200), equilibrium value
Bridges are numbered along the chain shown (N, C = ends). Primed or numbered codes have the meaning given here. The star is where a group is joined. Biotin = O=C1N[C@H]2[C@H](CS[C@H]2CCCCC(=O)*)N1; PEG4′ = not defined here
Note: pKd values are expressed as the negative base-10 logarithm of concentration in M.

Prompt: Need pKd, item {Biotin-PEG4′}-GPDCAYHRGELVWCTFH-NH2 (disulfide 4-14 (inferred))
Response: 8.00

Prompt: Next binder: {Biotin-PEG4′}-DCAYHRGELVWCT-NH2 (disulfide 2-12 (inferred))
Response: 7.19

Prompt: Next binder: {Biotin-PEG4′}-GPRCAYHRGELVWCSFH-NH2 (disulfide 4-14 (inferred))
Response: 7.25
